- SYSTEM_TESTED: Neuronal acetylcholine receptor; alpha3/beta4 (Homo sapiens, UniProt P30926+P32297)
- TEST_SUMMARY: Maximal agonist activity at human alpha-3-beta-4 ACHR expressed in HEK293 cells assessed as change in intracellular calcium concentration by FLIPR relative to nicotine
- Format: functional, cell-based
Listing of recorded Activity by entry.
Report only the number, with the unit % understood.

Completed entries (count: 5):
{"COMPOUND": "COc1cc(N2C[C@@H]3CCNC[C@@H]32)cnc1Br", "SYSTEM_TESTED": "Neuronal acetylcholine receptor; alpha3/beta4 (Homo sapiens, UniProt P30926+P32297)", "METRIC_NAME": "Activity", "REPORTED_MEASUREMENT": 84}
{"COMPOUND": "Clc1ccc(N2C[C@@H]3CCNC[C@@H]32)cn1", "SYSTEM_TESTED": "Neuronal acetylcholine receptor; alpha3/beta4 (Homo sapiens, UniProt P30926+P32297)", "METRIC_NAME": "Activity", "REPORTED_MEASUREMENT": 129}
{"COMPOUND": "NC(=O)c1cc(N2C[C@H]3CCNC[C@H]32)cnc1Br", "SYSTEM_TESTED": "Neuronal acetylcholine receptor; alpha3/beta4 (Homo sapiens, UniProt P30926+P32297)", "METRIC_NAME": "Activity", "REPORTED_MEASUREMENT": 90}
{"COMPOUND": "CCOc1cncc(N2CC[C@@H]3CN[C@@H]3C2)c1", "SYSTEM_TESTED": "Neuronal acetylcholine receptor; alpha3/beta4 (Homo sapiens, UniProt P30926+P32297)", "METRIC_NAME": "Activity", "REPORTED_MEASUREMENT": 86}
{"COMPOUND": "Brc1cncc(N2CC[C@@H]3CN[C@@H]3C2)c1 (single isomer, unassigned)", "SYSTEM_TESTED": "Neuronal acetylcholine receptor; alpha3/beta4 (Homo sapiens, UniProt P30926+P32297)", "METRIC_NAME": "Activity", "REPORTED_MEASUREMENT": 91}

Problem: # return Activity for CCOc1cncc(N2CC[C@H]3CN[C@H]3C2)c1 , test system: Neuronal acetylcholine receptor; alpha3/beta4 (Homo sapiens, UniProt P30926+P32297)
Solution: 103

Problem: # return Activity for c1ncc(N2CC[C@@H]3CN[C@@H]3C2)cn1 , test system: Neuronal acetylcholine receptor; alpha3/beta4 (Homo sapiens, UniProt P30926+P32297)
Solution: 106

====

- SYSTEM_TESTED: Neuronal acetylcholine receptor; alpha4/beta2 (Homo sapiens, UniProt P17787+P43681)
- Sequence (P17787 whole entry): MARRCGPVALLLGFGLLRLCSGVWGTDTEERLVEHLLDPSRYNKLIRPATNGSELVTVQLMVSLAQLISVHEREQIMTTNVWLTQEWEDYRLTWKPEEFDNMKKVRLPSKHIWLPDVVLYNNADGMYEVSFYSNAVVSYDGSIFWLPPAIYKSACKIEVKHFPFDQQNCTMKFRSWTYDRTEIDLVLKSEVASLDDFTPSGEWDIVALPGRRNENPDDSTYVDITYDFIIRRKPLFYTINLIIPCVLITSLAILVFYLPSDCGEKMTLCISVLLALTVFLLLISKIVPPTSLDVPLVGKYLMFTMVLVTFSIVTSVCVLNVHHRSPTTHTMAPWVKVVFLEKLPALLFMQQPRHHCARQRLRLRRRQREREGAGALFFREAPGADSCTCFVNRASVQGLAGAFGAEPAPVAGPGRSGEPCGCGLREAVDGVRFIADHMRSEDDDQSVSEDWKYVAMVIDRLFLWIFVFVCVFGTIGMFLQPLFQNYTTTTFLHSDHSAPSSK
- Sequence (P43681 whole entry): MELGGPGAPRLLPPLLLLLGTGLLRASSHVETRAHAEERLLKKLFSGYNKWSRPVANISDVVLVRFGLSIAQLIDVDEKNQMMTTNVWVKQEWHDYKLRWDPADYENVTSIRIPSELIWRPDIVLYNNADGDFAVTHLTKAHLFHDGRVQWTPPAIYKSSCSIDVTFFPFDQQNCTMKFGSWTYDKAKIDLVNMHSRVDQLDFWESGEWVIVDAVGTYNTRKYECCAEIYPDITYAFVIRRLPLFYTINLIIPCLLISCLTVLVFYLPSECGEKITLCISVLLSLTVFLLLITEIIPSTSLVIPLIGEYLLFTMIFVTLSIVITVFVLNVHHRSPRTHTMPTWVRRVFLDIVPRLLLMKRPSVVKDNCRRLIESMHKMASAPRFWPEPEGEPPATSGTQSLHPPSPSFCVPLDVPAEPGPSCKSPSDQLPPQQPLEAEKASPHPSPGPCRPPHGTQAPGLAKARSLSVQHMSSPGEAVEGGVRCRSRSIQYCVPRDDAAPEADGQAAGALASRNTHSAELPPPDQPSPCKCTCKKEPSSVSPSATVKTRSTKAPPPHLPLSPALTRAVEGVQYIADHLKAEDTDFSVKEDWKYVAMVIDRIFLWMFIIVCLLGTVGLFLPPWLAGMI
- TEST_SUMMARY: Agonist activity at human alpha4beta2 ACHR expressed in HEK293 cells assessed as change in intracellular calcium concentration by FLIPR
METRIC_NAME: pEC50
Interpret pEC50 as the negative base-10 log of the concentration measured in mol/L.

Completed entries (count: 6):
{"COMPOUND": "c1cncc(N2C[C@H]3CCNC[C@H]32)c1", "SYSTEM_TESTED": "Neuronal acetylcholine receptor; alpha4/beta2 (Homo sapiens, UniProt P17787+P43681)", "REPORTED_MEASUREMENT": 5.85}
{"COMPOUND": "Brc1cncc(N2CC[C@@H]3CN[C@@H]3C2)c1 (single isomer, unassigned)", "SYSTEM_TESTED": "Neuronal acetylcholine receptor; alpha4/beta2 (Homo sapiens, UniProt P17787+P43681)", "REPORTED_MEASUREMENT": 6.00}
{"COMPOUND": "N#Cc1cncc(N2C[C@@H]3CCNC[C@@H]32)c1", "SYSTEM_TESTED": "Neuronal acetylcholine receptor; alpha4/beta2 (Homo sapiens, UniProt P17787+P43681)", "REPORTED_MEASUREMENT": 5.66}
{"COMPOUND": "N#Cc1cc(N2CC[C@H]3CN[C@H]3C2)cnc1Br", "SYSTEM_TESTED": "Neuronal acetylcholine receptor; alpha4/beta2 (Homo sapiens, UniProt P17787+P43681)", "REPORTED_MEASUREMENT": 8.21}
{"COMPOUND": "CCOc1cncc(N2CC[C@@H]3CN[C@@H]3C2)c1", "SYSTEM_TESTED": "Neuronal acetylcholine receptor; alpha4/beta2 (Homo sapiens, UniProt P17787+P43681)", "REPORTED_MEASUREMENT": 5.87}
{"COMPOUND": "Clc1ccc(N2CC[C@H]3CN[C@H]3C2)nn1", "SYSTEM_TESTED": "Neuronal acetylcholine receptor; alpha4/beta2 (Homo sapiens, UniProt P17787+P43681)", "REPORTED_MEASUREMENT": 7.11}

Problem: // Input: Clc1cc(N2C[C@H]3CCNC[C@H]32)cnc1Cl . Output its pEC50 only.
Solution: 6.75

Problem: // Input: Clc1ccc(N2CC[C@@H]3CN[C@@H]3C2)cn1 . Output its pEC50 only.
Solution: 7.62

Problem: // Input: Cc1cc(N2C[C@@H]3CCNC[C@@H]32)cnc1Cl . Output its pEC50 only.
Solution: 7.12

Problem: // Input: O=[N+]([O-])c1ccc(N2CC[C@H]3CN[C@H]3C2)cn1 . Output its pEC50 only.
Solution: 7.00

Problem: // Input: COc1ccc(N2CC[C@@H]3CN[C@@H]3C2)cn1 . Output its pEC50 only.
Solution: 5.30

Problem: // Input: c1cncc(N2CC[C@H]3CN[C@H]3C2)c1 . Output its pEC50 only.
Solution: 7.15
